target: GIPC3, Q8TF64; assay: holdup assay; set-up: key: below the threshold = too weak to quantify, mostly under pKd 3.1 to 4; details: plain residues with an end cap or a label only (N-terminal biotin on a linker: ttds)
Sequence (Q8TF64 107-202): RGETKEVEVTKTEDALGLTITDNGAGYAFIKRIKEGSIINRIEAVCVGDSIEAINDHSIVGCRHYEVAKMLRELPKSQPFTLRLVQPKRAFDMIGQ
ATTRIBUTE_MEASURED: pKd

> print(dat)
                          binder            obs.value
1     RSLEEEESQL [GRASP, Q7Z6J2]  below the threshold
2  SSRTRRETQL [HPV16-E6, P03126]  below the threshold
3      QSARYRDTEL [TJP2, Q9UDY2]  below the threshold
4   PKTPPTDTSV [KIR3DL3, Q8N743]  below the threshold
